Documented EE % across a set of compounds
METHOD: Plate-based fluorescence (RiboGreen) assay: nucleic acid cargo content and encapsulation efficiency of LNPs
Format: physicochemical
ASSAY_CONTEXT: LNP compositions for in vivo mouse study; four formulations (F1-F4) pooled, or pools of four compounds

Observe how each entry below is paired with its result.
COMPOUND	EE %
CCCCCCCCOC(CCC(=O)OCC(COC(=O)CCCCCCOC(=O)C(CCCC)CCCCCC)(COC(=O)CCC(CCCCCC)OC(=O)NCCN1CCCC1)COC(=O)CCC(OCCCCCCCC)OCCCCCCCC)OCCCCCCCC (stereo not shown)	97%
CCCCCCCC/C=C\CCCCCCCC(=O)OCC(COC(=O)CCCCCCC/C=C\CCCCCCCC)(COC(=O)CCC(CCCCCC)OC(=O)NCCN1CCCC1)COC(=O)CC12CC3CC(CC(C3)C1)C2 (stereo not shown)	96%
CCCCC/C=C\C/C=C\CCCCCCCC(=O)OCC(COC(=O)CCCCCCC/C=C\C/C=C\CCCCC)(COC(=O)CCC(CCCCCC)OC(=O)NCCN1CCCC1)COC(=O)CCC(OCCCCCCCC)OCCCCCCCC (stereo not shown)	99%
CCCCC/C=C\C/C=C\CCCCCCCC(=O)OCC(COC(=O)CCCCCCC/C=C\C/C=C\CCCCC)(COC(=O)CCCCCCC/C=C\C/C=C\CCCCC)COC(=O)CCC(CCCCCC)OC(=O)NCCN1CCCC1 (stereo not shown)	96%
CCCCC/C=C\CCOC(=O)CCCCC(=O)OCC(COC(=O)CCCCC(=O)OCC/C=C\CCCCC)(COC(=O)CCC(CCCCCC)OC(=O)NCCN1CCCC1)COC(=O)CC12CC3CC(CC(C3)C1)C2 (stereo not shown)	96%

What does the record list as EE % for CCCCC/C=C\CCOC(=O)CCCCCC(=O)OCC(COC(=O)CCCCCCOC(=O)C(CCCC)CCCCCC)(COC(=O)CCCCCC(=O)OCC/C=C\CCCCC)COC(=O)CCC(CCCCCC)OC(=O)NCCN1CCCC1 (stereo not shown) ?
96%

And for CCCCC/C=C\CCOC(=O)CCCCCCC(=O)OCC(COC(=O)CCCCCCC(=O)OCC/C=C\CCCCC)(COC(=O)CCC(CCCCCC)OC(=O)NCCN1CCCC1)COC(=O)CC12CC3CC(CC(C3)C1)C2 (stereo not shown) ?
97%

And for CCCCC/C=C\CCOC(=O)CCCCCCC(=O)OCC(COC(=O)CCCCCCC(=O)OCC/C=C\CCCCC)(COC(=O)CCCCCCC(=O)OCC/C=C\CCCCC)COC(=O)CCC(CCCCCC)OC(=O)NCCN1CCCC1 (stereo not shown) ?
99%

And for CCCCC/C=C\CCOC(=O)CCCCCC(=O)OCC(COC(=O)CCCCCC(=O)OCC/C=C\CCCCC)(COC(=O)CCC(CCCCCC)OC(=O)NCCN1CCCC1)COC(=O)CCC(OCCCCCCCC)OCCCCCCCC (stereo not shown) ?
97%

And for CCCCC/C=C\CCOC(=O)CCCCCCC(=O)OCC(COC(=O)CCCCCCC(=O)OCC/C=C\CCCCC)(COC(=O)CCC(CCCCCC)OC(=O)NCCN1CCCC1)COC(=O)CCC(OCCCCCCCC)OCCCCCCCC (stereo not shown) ?
97%
